# TARGET SYSTEM: T1, UNK ZnF1-3 (human, UniProt Q9C0B0 31-174)
# T1 sequence: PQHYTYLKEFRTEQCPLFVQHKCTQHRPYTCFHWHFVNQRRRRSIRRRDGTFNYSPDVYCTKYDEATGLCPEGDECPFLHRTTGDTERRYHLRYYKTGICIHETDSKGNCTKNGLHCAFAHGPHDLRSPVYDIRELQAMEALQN
# EXPERIMENT DESCRIPTION: nsRBNS (natural sequence RNA bind-n-seq); RBNS binding buffer (assumed for nsRBNS): 25 mM Tris pH 7.5, 150 mM KCl, 3 mM MgCl2, 0.01% Triton X-100, 500 ug/ml BSA, 20 U/ml SUPERase-In, 4 C; UNK is unkempt and MSI1 is Musashi-1; names of the RNAs are library labels; protein concentration not given here; high values mean tight binding
Over roughly 24,000 sequences, “enrichment r” has its median near 0.99; the highest 2% begin near 3.7. This excerpt belongs to a sample that is enriched for the highest values.
Answer each item with its documented binding signal.
State just the number; it will be interpreted in enrichment R.

IN: Sample chr12:16048344:16048345:+_ENSG00000023734_ENST00000419869|hu_hu|hu_hu_hu_mus_True|18_78 (ssRNA) RNA: GGGAGUUCUACAGUCCGACGAUCAGAUCGUCCAUAAGUAAUAACCAAAAUCUCUCCCUCAGGAAUAUACUCCAUGCUGCUAACAGACAUAUUAAAAUUCAGAGAUUUCACUUCUGUCAUAGUAGCAUGAUCCCAGAGCCGAACCAACAGAGGAUUGAGCAUCA — what was its binding signal?
OUT: 0.91

IN: Also chr9:91093546:91093547:+_ENSG00000106723_ENST00000375859|hu_mus|FALSE|FALSE (ssRNA) RNA: GGGAGUUCUACAGUCCGACGAUCUACAUCAUAAUUAUAAAAAUUACUUACAGAAUUAACAGUUGUACUGUGUAUACUUCUAAAUGCAGAGAACAGGGAACCGUCUACACGUUGUAUAAAAUAAAAUUAAAAUUAAAAAUGAAUCAACAGAGGAUUGAGCAUCA , if possible.
OUT: 7.07

IN: Also chr16:94690093:94690094:+_ENSMUSG00000040785_ENSMUST00000117648|mus_mus|motif|central (ssRNA) RNA: GGGAGUUCUACAGUCCGACGAUCUGGGACUCCUGUGAGCAGACAGCAUCUUCCCAGGGUAAAAAAAAAAAAUAGCCAAUACGGAUUUAAAAAGUAUUUUAUAAUUGAUUACCAAAAUGUAGAUUAAUUGAAUCAUAAGCACUUCAACAGAGGAUUGAGCAUCA , if possible.
OUT: 4.87
